Assay: Oral bioavailability in Sprague-Dawley rat at 2 mg/kg
Format: ADME, organism-based
Settings: in vivo
The entries below are paired with their reported bioavailability.
Respond numerically; units are % and should not be typed.

Completed entries (count: 2):
CCn1c(=O)c(-c2cc(C(=O)NC3CC3)ccc2C)cc2nnc(-c3c(F)cccc3Cl)n21 :: 55
Cc1c(F)cc(C(=O)NC2CC2)cc1-c1cc2nnc(-c3c(F)cccc3Cl)n2n(C)c1=O :: 83

Exercise: Requested field: bioavailability. Item: CCn1c(=O)c(-c2cc(C(=O)NC3CC3)cc(F)c2C)cc2nnc(-c3c(F)cccc3Cl)n21
Key: 42

* * *

Test: Volume of distribution at steady state in Sprague-Dawley rat at 2 mg/kg, iv
Format: ADME, organism-based
Set-up: dose 2 mg/kg, route intravenous
Details: in vivo, read-out: Vdss
readout-name: Vd (L/kg)
Respond numerically; units are L/kg and should not be typed.

Exercise: Requested field: Vd. Item: CCn1c(=O)c(-c2cc(C(=O)NC3CC3)cc(F)c2C)cc2nnc(-c3c(F)cccc3Cl)n21
Key: 2.7

Exercise: Requested field: Vd. Item: CCn1c(=O)c(-c2cc(C(=O)NC3CC3)ccc2C)cc2nnc(-c3c(F)cccc3Cl)n21
Key: 2.54

Exercise: Requested field: Vd. Item: Cc1c(F)cc(C(=O)NC2CC2)cc1-c1cc2nnc(-c3c(F)cccc3Cl)n2n(C)c1=O
Key: 2.42

* * *

Experiment: Clearance in rat
Format: ADME, organism-based
Details: in vivo
readout-name: clearance (mL/min/kg)
Respond numerically; units are mL/min/kg and should not be typed.

Cc1ccc(C(=O)NC2CC2)cc1-c1cc2cnn(-c3c(F)cccc3F)c2n(C)c1=O :: 3.67

Exercise: Requested field: clearance. Item: Cc1ccc(C(=O)NC2CC2)cc1-c1ccn2c(-c3c(F)cccc3F)nnc2c1
Key: 6.17

Data credit: ChEMBL document CHEMBL1944508
